Taken from patent US9593069B2.

# System: Caco-2
# protocolDetails: Caco-2 permeability
# Assay type: in vitro ADME
# runConditions: A − B
measuredAttribute: Caco-2 A − B (×10⁻⁶ cm/s)
Answers are plain numbers, in ×10⁻⁶ cm/s.

So what's the measured Caco-2 A − B for this one? O=C1CC(=O)CC(c2cc(C(F)(F)F)cc(C(F)(F)F)c2)C1 [drawing 217] 38

---

# protocolDetails: In vivo pharmacological properties
# runConditions: blood
measuredAttribute: half-life

So what's the measured half-life for this one? O=C1CC(=O)CC(c2cc(C(F)(F)F)cc(C(F)(F)F)c2)C1 ~210 min

---

# protocolDetails: Mouse metabolic potential
# Assay type: in vitro ADME
# runConditions: liver microsomes, read-out: Mouse Metabolic Potential T1/2
measuredAttribute: half-life

So what's the measured half-life for this one? O=C1CC(=O)CC(c2cc(C(F)(F)F)cc(C(F)(F)F)c2)C1 [drawing 217] > 3 h
